TARGET ENTITY: Platelet-derived growth factor receptor beta (Homo sapiens)
Sequence (P09619 whole entry): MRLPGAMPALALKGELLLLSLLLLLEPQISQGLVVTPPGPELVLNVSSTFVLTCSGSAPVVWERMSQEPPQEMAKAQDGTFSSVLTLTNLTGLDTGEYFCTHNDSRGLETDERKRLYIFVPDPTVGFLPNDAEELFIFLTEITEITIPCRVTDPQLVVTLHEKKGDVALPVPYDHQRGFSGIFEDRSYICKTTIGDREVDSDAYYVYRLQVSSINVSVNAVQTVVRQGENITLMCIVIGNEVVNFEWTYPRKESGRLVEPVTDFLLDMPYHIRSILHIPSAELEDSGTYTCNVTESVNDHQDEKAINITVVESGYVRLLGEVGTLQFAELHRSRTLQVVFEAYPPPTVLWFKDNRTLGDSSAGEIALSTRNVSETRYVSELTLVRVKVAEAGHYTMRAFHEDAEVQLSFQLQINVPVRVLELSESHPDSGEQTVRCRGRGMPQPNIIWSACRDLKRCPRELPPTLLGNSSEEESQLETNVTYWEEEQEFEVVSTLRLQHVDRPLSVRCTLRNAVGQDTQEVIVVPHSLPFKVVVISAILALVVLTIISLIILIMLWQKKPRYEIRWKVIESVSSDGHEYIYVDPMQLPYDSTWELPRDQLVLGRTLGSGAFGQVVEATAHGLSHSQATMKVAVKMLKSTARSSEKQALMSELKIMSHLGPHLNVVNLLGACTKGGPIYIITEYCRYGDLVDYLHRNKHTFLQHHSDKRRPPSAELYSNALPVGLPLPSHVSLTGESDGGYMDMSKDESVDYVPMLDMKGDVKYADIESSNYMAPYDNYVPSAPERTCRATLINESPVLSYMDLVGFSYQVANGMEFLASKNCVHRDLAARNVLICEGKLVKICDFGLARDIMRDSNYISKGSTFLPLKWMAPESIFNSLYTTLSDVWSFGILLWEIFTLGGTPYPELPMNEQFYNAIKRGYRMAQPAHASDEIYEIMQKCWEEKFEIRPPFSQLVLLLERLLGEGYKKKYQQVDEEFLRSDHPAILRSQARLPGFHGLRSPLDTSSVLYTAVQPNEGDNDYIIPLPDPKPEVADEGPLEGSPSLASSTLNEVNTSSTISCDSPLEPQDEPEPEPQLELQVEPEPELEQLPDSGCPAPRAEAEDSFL
ASSAY EXPLANATION: Kinase buffer: 62.5 mM HEPES, pH 7.5; 0.001875% Brij-35; 12.5 mM MgCl2; 2.5 mM DTT. Stop buffer: 100 mM HEPES, pH 7.5; 0.015% Brij-35; 0.2% coating agent 3; 50 mM EDTA. Preparation of kinase solution: Kinase solution was obtained by dissolving kinases in the kinase buffer mentioned above. With regard to c-Kit kinase, the pre-activation treatments should be carried out as follows. 700 nM c-Kit, 2 mM ATP, 4 mM DTT and 10 mM MgCl2 were dissolved in kinase buffer. After being incubated at 28° C. for 15 minutes, the solution was added to the kinase buffer.
MEASURED ATTRIBUTE: IC50 (nM)
Hi! Could you send only the number? It should be in nM, unit omitted.

// query What does the record list as IC50 for CCN1CCN(C2CCc3cc(C(=O)Nc4ccc(C)c(Nc5nccc(-c6cccnc6)n5)c4)ccc32)CC1 (stereo unspecified) ?
// result 15
